Test system: ASPC1
protocol.description: Cytotoxicity against human ASPC1 cells incubated for 72 hrs by MTT assay
Type: functional, cell-based
experimental.setup: ASPC1, 72 h
property.label: IC50 (nM)
Write the value in nM as a bare number.

Which IC50 is listed for COc1cc2c(O[C@@H]3O[C@@H]4CO[C@@H](c5ccsc5)O[C@H]4[C@H](O)[C@H]3O)c3c(c(-c4ccc5c(c4)OCO5)c2cc1OC)C(=O)OC3 ? 283

---

Parameter: Cmax. Scope: all listed entries.
protocol.description: Cmax in ICR mouse at 3 mg/kg, po measured upto 24 hrs by LC-MS/MS analysis
Assay type: ADME, organism-based
experimental.setup: in vivo
Expressed in ng/mL, but write only the number.

COc1cc2c(O)c3c(c(-c4ccc5c(c4)OCO5)c2cc1OC)C(=O)OC3 [DIPHYLLIN]    11.9

Cmax for COc1cc2c(O[C@@H]3O[C@@H]4CO[C@@H](c5ccsc5)O[C@H]4[C@H](O)[C@H]3O)c3c(c(-c4ccc5c(c4)OCO5)c2cc1OC)C(=O)OC3 ? 306
